- test-protocol: DPPH radical scavenging assay
- assay-setup: 50 µM, 60 min; mean ± SD
- Procedure: The DPPH assay was used to assess the ability of the tested compounds to scavenge reactive radical species. Stock solutions of the investigated compounds were prepared in DMSO and then diluted with methanol to a final volume of 1000 µL. An equal volume of a 50 µM DPPH solution in methanol was then added to the prepared mixture. The final concentrations of the test compounds were 25, 50, and 100 µM. […] Methanol was used as a blank, and absorbance was measured at 517 nm after incubation. […]
metric-name: DPPH Scavenging Ability (%)
Reply numerically in %, unit not repeated.

(Q) Entry CSC(=S)NCCc1ccccc1 [Compound 1, Methyl phenethylcarbamodithioate] : reported DPPH Scavenging Ability = ?
(A) 2.4

(Q) Quick one: DPPH Scavenging Ability for O=c1c(O)c(-c2ccc(O)c(O)c2)oc2cc(O)cc(O)c12 [Quercetin, reference compound] ?
(A) 96.5

(Q) Returns the measured DPPH Scavenging Ability for the input compound. Input: CSC(=S)NCCc1ccc(O)cc1 [Compound 2]
(A) 15.7

(Q) # input compound: S=C1NC[C@H](c2ccccc2)O1 [Compound 5, (S)-5-phenyl-1,3-oxazolidine-2-thione] ; wanted: its DPPH Scavenging Ability
(A) 16.4

(Q) DPPH Scavenging Ability for S=C1NCC(c2ccccc2)O1 (racemic) [Compound 4, rac-5-Phenyl-1,3-oxazolidine-2-thione] ?
(A) 2.0

(Q) Look up DPPH Scavenging Ability for this compound: Oc1ccc(CCN=C=S)cc1 [Compound 8, 2-(4-hydroxyphenyl)ethyl isothiocyanate]
(A) 8.1

(Q) DPPH Scavenging Ability lookup needed for O=C(O)C1CSC(=S)N1 (stereo not drawn) [Compound 3, 2-Thioxothiazolidine-4-carboxylic Acid] , thanks.
(A) 2.1

(Q) Give the measured DPPH Scavenging Ability of O=C1NCC(c2ccccc2)S1 (stereo not drawn) [Compound 6, 5-phenyl-1,3-thiazolidin-2-one] .
(A) 4.6

(Q) Which value of DPPH Scavenging Ability has been reported for O=C1NCC(c2ccccc2)O1 (stereo not drawn) [Compound 7, 5-Phenyl-1,3-oxazolidin-2-one] in the records?
(A) 1.5

====

- target-of-assay: UniProtKB P08170
- Sequence (P08170 whole entry): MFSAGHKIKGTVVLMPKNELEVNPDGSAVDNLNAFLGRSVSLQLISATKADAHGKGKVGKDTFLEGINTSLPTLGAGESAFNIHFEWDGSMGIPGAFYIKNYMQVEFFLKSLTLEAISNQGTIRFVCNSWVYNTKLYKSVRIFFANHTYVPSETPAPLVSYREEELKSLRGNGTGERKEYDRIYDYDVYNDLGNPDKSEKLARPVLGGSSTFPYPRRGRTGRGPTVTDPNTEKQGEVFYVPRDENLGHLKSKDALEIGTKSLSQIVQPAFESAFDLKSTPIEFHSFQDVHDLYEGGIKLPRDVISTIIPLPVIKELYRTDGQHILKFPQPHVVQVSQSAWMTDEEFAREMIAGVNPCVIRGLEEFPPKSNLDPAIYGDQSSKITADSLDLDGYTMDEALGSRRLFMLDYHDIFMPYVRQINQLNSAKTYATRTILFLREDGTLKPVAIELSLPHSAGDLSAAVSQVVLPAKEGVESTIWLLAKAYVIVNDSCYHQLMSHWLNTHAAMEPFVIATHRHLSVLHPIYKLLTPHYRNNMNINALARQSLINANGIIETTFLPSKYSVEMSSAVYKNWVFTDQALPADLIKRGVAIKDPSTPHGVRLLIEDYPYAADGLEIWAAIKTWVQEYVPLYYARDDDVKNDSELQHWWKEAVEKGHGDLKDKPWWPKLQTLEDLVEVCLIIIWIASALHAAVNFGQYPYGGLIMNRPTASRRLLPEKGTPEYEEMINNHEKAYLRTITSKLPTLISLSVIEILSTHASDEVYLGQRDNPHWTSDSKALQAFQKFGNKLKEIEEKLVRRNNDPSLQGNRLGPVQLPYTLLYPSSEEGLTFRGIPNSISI
- test-protocol: LOX inhibition assay
- Assay type: biochemical
- assay-setup: 100 µM; mean ± SD; read-out: Percentage of LOX Inhibition
For each entry below, report its inhibition at 100 µM value.
Answer with a number only, understood to be in %.

(Q) What value of inhibition at 100 µM has been recorded for this entry: CSC(=S)NCCc1ccc(O)cc1 [Compound 2]
(A) 55.5

(Q) I am curious: what inhibition at 100 µM value has been reported for S=C1NC[C@H](c2ccccc2)O1 [Compound 5, (S)-5-phenyl-1,3-oxazolidine-2-thione] ?
(A) 40

(Q) I'd like to know its inhibition at 100 µM. The molecule in question is O=C(O)C1CSC(=S)N1 (centres unmarked) [Compound 3, 2-Thioxothiazolidine-4-carboxylic Acid]
(A) 23.8

(Q) Request the reported inhibition at 100 µM associated with O=C1NCC(c2ccccc2)S1 (centres unmarked) [Compound 6, 5-phenyl-1,3-thiazolidin-2-one]
(A) 34.6

(Q) Given CSC(=S)NCCc1ccccc1 [Compound 1, Methyl phenethylcarbamodithioate] , state its recorded inhibition at 100 µM.
(A) 47.5

(Q) Given the molecule O=C1NCC(c2ccccc2)O1 (centres unmarked) [Compound 7, 5-Phenyl-1,3-oxazolidin-2-one] , what is its reported inhibition at 100 µM?
(A) 18.3

(Q) Entry O=c1c(O)c(-c2ccc(O)c(O)c2)oc2cc(O)cc(O)c12 [Quercetin, reference compound] has what inhibition at 100 µM?
(A) 92

(Q) State the recorded inhibition at 100 µM for this entry: S=C1NCC(c2ccccc2)O1 (racemic) [Compound 4, rac-5-Phenyl-1,3-oxazolidine-2-thione]
(A) 90.5

====

Give MMC for every item shown.
- System: B. subtilis ATCC 6633
- test-protocol: Microdilution MIC/MMC with resazurin
- Format: cell-based, Bacillus subtilis
- assay-setup: B. subtilis ATCC 6633; compounds 1–8
Express your answer in mg/mL, writing the number without its unit.

(Q) Returns the measured MMC for the input compound. Input: O=C(O)C1CSC(=S)N1 (centres unmarked)
(A) 5

(Q) Give its MMC value. Item: `CSC(=S)NCCc1ccc(O)cc1`
(A) 1.25

(Q) I am curious: what MMC value has been reported for S=C1NCC(c2ccccc2)O1 (racemic) ?
(A) 5

(Q) # MMC lookup, item O=C1NCC(c2ccccc2)O1 (centres unmarked)
(A) 5

====

- Tested on: K. pneumoniae
- test-protocol: Inhibition of biofilm formation (crystal violet)
- Format: cell-based, Klebsiella pneumoniae
- assay-setup: biofilm coverage reduced by 50%
metric-name: BIC50 (µg/mL)
Report as a plain number; the unit µg/mL is understood.

(Q) Can you look up BIC50 on K. pneumoniae for Oc1ccc(CCN=C=S)cc1 [Compound 8, 2-(4-hydroxyphenyl)ethyl isothiocyanate] ?
(A) 570

(Q) Write down the reported BIC50 of S=C1NCC(c2ccccc2)O1 (racemic) , test system: K. pneumoniae.
(A) 3978

(Q) Write down the reported BIC50 of O=C(O)C1CSC(=S)N1 (stereo not drawn) , test system: K. pneumoniae.
(A) 1262

(Q) Form entry - test system: K. pneumoniae; read-out: BIC50; compound: `CSC(=S)NCCc1ccc(O)cc1`
(A) 580

(Q) BIC50 of O=C1NCC(c2ccccc2)O1 (stereo not drawn) on K. pneumoniae?
(A) 4400

(Q) Notebook entry, K. pneumoniae assay: BIC50 of CN(C)[C@@H]1C(O)=C(C(N)=O)C(=O)[C@@]2(O)C(O)=C3C(=O)c4c(O)cccc4[C@@](C)(O)[C@H]3C[C@@H]12 [Tetracycline, reference compound] = ?
(A) 6

====

- target-of-assay: COX-2 (Homo sapiens)
- Sequence (P35354 18-604): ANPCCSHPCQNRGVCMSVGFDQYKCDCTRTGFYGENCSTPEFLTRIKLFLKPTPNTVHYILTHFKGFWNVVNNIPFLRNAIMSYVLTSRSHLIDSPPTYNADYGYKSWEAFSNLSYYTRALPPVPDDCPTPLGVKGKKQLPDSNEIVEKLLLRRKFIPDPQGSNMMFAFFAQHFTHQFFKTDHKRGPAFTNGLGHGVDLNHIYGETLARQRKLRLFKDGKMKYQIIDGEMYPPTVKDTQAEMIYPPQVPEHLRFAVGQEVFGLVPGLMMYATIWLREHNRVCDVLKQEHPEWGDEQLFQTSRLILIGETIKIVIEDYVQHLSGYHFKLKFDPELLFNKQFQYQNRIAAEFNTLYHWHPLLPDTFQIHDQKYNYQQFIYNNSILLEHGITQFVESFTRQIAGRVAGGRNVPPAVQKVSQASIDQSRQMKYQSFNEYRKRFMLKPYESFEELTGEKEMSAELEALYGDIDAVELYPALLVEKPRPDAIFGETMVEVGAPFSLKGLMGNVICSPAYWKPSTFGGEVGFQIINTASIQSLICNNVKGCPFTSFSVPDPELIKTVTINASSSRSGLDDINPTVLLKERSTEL
What IC50 was measured for each of the following?

(Q) Please report the recorded IC50 for S=C1NCC(c2ccccc2)O1 (racemic) .
(A) > 100 µM

(Q) Given the molecule S=C1NC[C@H](c2ccccc2)O1 [Compound 5, (S)-5-phenyl-1,3-oxazolidine-2-thione] , what is its reported IC50?
(A) > 100 µM

====

- Test system: P. mirabilis
- test-protocol: Microdilution MIC/MMC with resazurin
- Assay type: cell-based, Proteus mirabilis
- assay-setup: Proteus mirabilis; P. mirabilis; compounds 1–8; read-out: MIC
- Protocol: The antimicrobial activity was evaluated against 15 microorganisms. […] Antimicrobial activity was evaluated by determining the minimum inhibitory concentration (MIC) and minimum microbicidal concentration (MMC) using the microdilution plate method with resazurin as an indicator [28]. […] Each test also included growth control and sterility control. […] For molds, MIC values of the tested compound were determined as the lowest concentration that inhibited visible mycelia growth. […]
Can you tell me MIC for the items I'm about to list?
Response body: numeric value in µg/mL, unit text excluded.

(Q) State the recorded MIC for this entry: O=C(O)C1CSC(=S)N1 (stereo not drawn)
(A) 2500

(Q) Data request, read-out MIC, for CSC(=S)NCCc1ccccc1 [Compound 1, Methyl phenethylcarbamodithioate]
(A) 5000

====

- test-protocol: DPPH radical scavenging assay
- assay-setup: 50 µM, 20 min; mean ± SD
Please go through the items and note down their DPPH Scavenging Ability.

(Q) What value of DPPH Scavenging Ability has been reported for the following compound? O=C1NCC(c2ccccc2)O1 (centres unmarked)
(A) 1.5 ± 0.9%

(Q) Requested field: DPPH Scavenging Ability. Item: S=C1NC[C@H](c2ccccc2)O1 [Compound 5, (S)-5-phenyl-1,3-oxazolidine-2-thione]
(A) 14.8 ± 0.7%

(Q) So what's the measured DPPH Scavenging Ability for this one? O=C1NCC(c2ccccc2)S1 (centres unmarked)
(A) 4.2 ± 0.8%

(Q) // returns reported DPPH Scavenging Ability for input `CSC(=S)NCCc1ccc(O)cc1`
(A) 15.6 ± 0.3%

(Q) Data request, read-out DPPH Scavenging Ability, for S=C1NCC(c2ccccc2)O1 (racemic)
(A) 1.7 ± 0.8%
